- Test system: Falciformispora senegalensis CBS197.79
- test: growth relative to untreated control; higher = less inhibition, active = 20 or less
- details: 25 µM
quantity_name: growth

Guide cases for growth, answers given:
molecule="Cc1cnc2nc(NC3COc4ccccc43)nc(NC(C3CC3)C3CC3)c2c1 (centres undefined)" assayed_target="Falciformispora senegalensis CBS197.79" quantity_name=growth reported_measurement="83.2% (inactive)"
molecule=COc1ccc2nc3cc(Cl)ccc3c(Nc3cc(CN4CCCC4)c(O)c(CN4CCCC4)c3)c2n1 assayed_target="Falciformispora senegalensis CBS197.79" quantity_name=growth reported_measurement="107% (inactive)"
molecule=N#Cc1ccc(C/C(=N/NC(=O)Nc2ccc(OC(F)(F)F)cc2)c2cccc(C(F)(F)F)c2)cc1 assayed_target="Falciformispora senegalensis CBS197.79" quantity_name=growth reported_measurement="97% (inactive)"
molecule=CCN1CCN(Cc2ccc(-c3cc4c(N[C@H](C)c5ccccc5)[nH]cnc-4n3)cc2)CC1 assayed_target="Falciformispora senegalensis CBS197.79" quantity_name=growth reported_measurement="78.1% (inactive)"
molecule=Oc1nc2ccccc2n1C1CCN(CCCC(c2ccc(F)cc2)c2ccc(F)cc2)CC1 assayed_target="Falciformispora senegalensis CBS197.79" quantity_name=growth reported_measurement="101% (inactive)"
molecule="COc1cccc2c1CCCC2CCCN1CCN(C2CCCCC2)CC1 (centres undefined)" assayed_target="Falciformispora senegalensis CBS197.79" quantity_name=growth reported_measurement="101% (inactive)"
molecule=COc1ccc(CCN(Cc2cccs2)C(=O)c2cc3sccc3n2C)cc1OC assayed_target="Falciformispora senegalensis CBS197.79" quantity_name=growth reported_measurement="97.9% (inactive)"
molecule=CCS(=O)(=O)N1CC(CC#N)(n2cc(-c3ncnc4[nH]ccc34)cn2)C1 assayed_target="Falciformispora senegalensis CBS197.79" quantity_name=growth reported_measurement="102% (inactive)"

// next entry
Bench note: what growth did CC(C)C(=O)OCC(=O)[C@@]12OC(C3CCCCC3)O[C@@H]1C[C@H]1[C@@H]3CCC4=CC(=O)C=C[C@]4(C)[C@H]3[C@@H](O)C[C@@]12C (some centres undefined) show?
109% (inactive)

----------
- System: Falciformispora senegalensis CBS197.79
- test: growth relative to untreated control; higher = less inhibition, active = 20 or less
- details: 25 µM
Could you label it True if measured growth is 90% or higher, and False otherwise?

The following molecules have reported results that may help.
molecule="CC(C)(C)Nc1ncc2nc(Nc3cccc(C(F)(F)F)c3)n(CC3CCNC3)c2n1 (stereo not drawn)" qualitative_label=True
molecule=OC[C@H]1NC[C@H](O)[C@@H](O)[C@H]1O qualitative_label=True
molecule=COc1ccc2c(O[C@@H]3C[C@H]4C(=O)N[C@]5(C(=O)NS(=O)(=O)C6CC6)C[C@H]5/C=C\CCCCN(C)C(=O)[C@@H]4C3)cc(-c3nc(C(C)C)cs3)nc2c1C qualitative_label=True
molecule="CCC(C)n1ncn(-c2ccc(N3CCN(c4ccc(OCC5COC(Cn6cncn6)(c6ccc(Cl)cc6Cl)O5)cc4)CC3)cc2)c1=O (stereo not drawn)" qualitative_label=False
molecule=Cc1onc(-c2ccccc2)c1-c1ccc(S(N)(=O)=O)cc1 qualitative_label=True

Textbook exercise: given the entry `CC(C)c1nc(CN(C)C(=O)N[C@H](C(=O)N[C@@H](Cc2ccccc2)C[C@H](O)[C@H](Cc2ccccc2)NC(=O)OCc2cncs2)C(C)C)cs1` , state whether its growth is greater than or equal to 90%.
True

Textbook exercise: given the entry CN(C)CCn1cnc2sc3c(c2c1=O)CCC(NCc1cccc(Cl)c1)C3 (stereo not drawn) , state whether its growth is greater than or equal to 90%.
True

Textbook exercise: given the entry `Cc1cccc(-c2noc(-c3ccccc3)n2)c1` , state whether its growth is greater than or equal to 90%.
False

Values from the supplement of paper PMC11172423
